Where these numbers come from: ChEMBL document CHEMBL5244222

Please respond with reported Ki for every item in the list.
target: Alpha-glucosidase (Saccharomyces cerevisiae S288c, UniProt P53341+P38158+P07265); assay: Mixed-type inhibition of Saccharomyces cerevisiae alpha-glucosidase using PNPG as substrate incubated for 30 mins by Lineweaver-Burk double-reciprocal plot analysis; assay type: protein assay
Numbers only; they are read as µM.

Query: State, in one line, measured Ki of C=C(C)/C=C/c1c(OC)c(O)cc2oc3cc4c(c(O)c3c(=O)c12)CC(O)C(C)(C)O4 (centres undefined)
Response: 23

Query: Please list Ki recorded for the molecule CC(C)=CC/C(C)=C/Cc1c(O)cc2oc3c(O)ccc(O)c3c(=O)c2c1O
Response: 2.8

Query: # return recorded Ki for entry C=C(C)/C=C/c1c(O)cc2oc3cc(O)c(OC)c(CC(=O)C(=C)C)c3c(=O)c2c1O
Response: 8.1

Query: Answer with the recorded Ki of C=C(C)/C=C/c1c(O)c(CC=C(C)C)c2oc3c(O)cccc3c(=O)c2c1O only.
Response: 12.3

Query: Please look at this molecule and report its Ki: C=C(C)/C=C/c1c(O)cc2oc3cc(O)c(OC)c(/C=C/C(=C)C)c3c(=O)c2c1O
Response: 7.3

Query: Please supply the value of reported Ki for the item C=C(C)/C=C/c1c(O)c(CC=C(C)C)c2oc3c(O)ccc(O)c3c(=O)c2c1O
Response: 8.5

Query: Give recorded Ki. C=C(C)C1Cc2c(cc3oc4cc(O)c(OC)c(CC=C(C)C)c4c(=O)c3c2O)O1 (centres undefined)
Response: 18.1

Query: For the molecule C=C(C)/C=C/c1c(O)cc2oc3cc(O)c(O)c(/C=C/C(=C)C)c3c(=O)c2c1O , give its reported Ki.
Response: 1.4

Query: Give the reported Ki for this molecule. C=C(C)/C=C/c1c(OC)cc2oc3cc(O)c(OC)c(/C=C/C(=C)C)c3c(=O)c2c1O
Response: 14.8

====

molecular target: Alpha-glucosidase (Saccharomyces cerevisiae S288c, UniProt P53341+P38158+P07265); assay: Inhibition of Saccharomyces cerevisiae alpha-glucosidase assessed as release of p-nitrophenol using pNPG as substrate preincubated for 15 mins followed by substrate addition and measured after 5 mins by spectrophotometric assay; assay type: protein assay
recorded metric: IC50

Query: Please report the measured IC50 for CC(C)=CCC1=C2O[C@]34C(C[C@@H]5C[C@H]3C(C)(C)O[C@@]4(C/C=C(\C)C(=O)O)C5=O)C(=O)[C@@H]2C(O)C2=C1OC(C)C=C2 (stereo partly drawn)
Response: > 300 µM

Query: Check the records and state IC50 for CC(C)=CCC/C(C)=C/Cc1c(C)c(CC=C(C)C)c2c(c1O)C(=O)C1=C[C@@H]3C[C@H]4C(C)(C)O[C@@](C/C=C(\C)C(=O)O)(C3=O)[C@@]14O2
Response: > 300 µM

Query: Give IC50 for C=C(C)/C=C/[C@]1(C)C=CC2=C(O1)C(CC=C(C)C)=C1O[C@]34C(C(=O)[C@@H]1C2O)[C@@H](OCC)[C@@H]1C[C@H]3C(C)(C)O[C@@]4(C/C=C(\C)C(=O)O)C1=O (stereo partly drawn)
Response: 111.8 µM

====

target: Alpha-glucosidase (Saccharomyces cerevisiae S288c, UniProt P53341+P38158+P07265); assay: Inhibition of Saccharomyces cerevisiae alpha-glucosidase using PNPG as substrate incubated for 30 mins by spectrophotometric assay; assay type: protein assay
// classify: if (IC50 < 10 µM) t else f

Query: Please let me know if C=C(C)C1Cc2c(cc3oc4cc(O)c(OC)c(CC=C(C)C)c4c(=O)c3c2O)O1 (stereo not given) shows IC50 below 10 µM.
Response: f

Query: Does the reported IC50 of C=C(C)/C=C/c1c(O)c(CC=C(C)C)c2oc3c(O)ccc(O)c3c(=O)c2c1O stay below 10 µM?
Response: f

Query: Dear reviewer, please state whether C=C(C)/C=C/c1c(OC)cc2oc3cc(O)c(OC)c(/C=C/C(=C)C)c3c(=O)c2c1O has IC50 strictly beneath 10 µM.
Response: f

Query: Just wondering, is IC50 of C=C(C)/C=C/c1c(O)cc2oc3cc(O)c(OC)c(/C=C/C(=C)C)c3c(=O)c2c1O below 10 µM?
Response: t
